# System: OVCAR-3
# procedure-summary: NCI tumour cell line growth inhibition, 48 h
Activity calls are given as the source filed them. No stated cut-off is given here; in the data, active = GI50 up to about 1.1 µM and inactive = higher.
property-measured: GI50

Reported GI50 for N#CCCOCN(CO)c1nc(N(CO)COCCC#N)nc(N(CO)COCCC#N)n1 was 25.7 µM (inactive)

# compound CC(C)CC(NC(=O)C(CSc1ccc([N+](=O)[O-])cc1)Cc1ccccc1)C(=O)Nc1ccccc1 (centres undefined) ; its GI50 = > 100 µM (inactive)

Looking up Cc1sc2nc3n(c(=O)c2c1C)N=CN(c1ccccc1)C3 , I see its GI50 listed as 19.4 µM (inactive)

The recorded GI50 for entry CCCCCCCCCCCCc1ccsc1-c1ccc(-c2ccc(-c3sc(-c4cc(CCCCCCCCCCCC)c(-c5ccc(-c6ccc(-c7sccc7CCCCCCCCCCCC)s6)s5)s4)cc3CCCCCCCCCCCC)s2)s1 equals > 100 µM (inactive)

// NC(Cc1ccccc1)C(=O)O (centres undefined) : GI50 value = > 100 µM (inactive)

# GI50 of N#Cc1c(SCc2ccccc2)nc(-c2ccccc2)[nH]c1=S = 18.5 µM (inactive)

The recorded GI50 for CO/N=C(/C(=O)Nc1c[n+](CC(=O)[O-])cs1)c1csc(N)n1 is > 100 µM (inactive)

GET /value?item= OC1=C2c3ccccc3NC2Oc2cc(F)ccc21 (centres undefined) &field=GI50 returns 11.9 µM (inactive)

Summary for this compound, Cc1ccc(NC(=O)CC(=O)n2nc(-c3ccccc3)c(/N=N/c3ccc(Cl)cc3)c2-c2ccccc2)cc1 : GI50 is 42.6 µM (inactive)

----------
# Test system: DMS-114
# procedure-summary: NCI tumour cell line growth inhibition, 48 h
Activity calls are given as the source filed them. No stated cut-off is given here; in the data, active = GI50 up to about 1.1 µM and inactive = higher.
property-measured: GI50

// GI50 value for COc1ccc(-c2oc(/C=N/c3ccccc3)c([N+](=O)[O-])c2-c2ccc(OC)c(OC)c2)cc1OC : > 100 µM (inactive)

// GI50 value for O=C(NO)c1coc2ccccc2c1=O : 82 µM (inactive)

Memo: CC1(OCc2ccccc2)C(=O)N2C1N(C(=O)OCc1ccccc1)CC2(C)C (stereo unspecified) , reported GI50: 31.3 µM (inactive)

The reported GI50 of the molecule CS(=O)(=O)C(C#N)c1nc2ccccc2nc1Cl (stereo unspecified) was > 100 µM (inactive)

The molecule COc1ccc(-c2cc(=O)c3c(O)cccc3o2)c(OC)c1OC showed GI50 equal to 18.6 µM (inactive)

Entry Cc1cc(O)nc(NN2C(Cl)C(=O)C2c2ccc(O)cc2)n1 (stereo unspecified) ; GI50 = 7.35 µM (inactive)

----------
# System: MDA-N
# procedure-summary: NCI tumour cell line growth inhibition, 48 h
Activity calls are given as the source filed them. No stated cut-off is given here; in the data, active = GI50 up to about 1.1 µM and inactive = higher.
Pick one and only one: Yes = active, No = inactive

Inquiry: Called result for C=C1CC[C@H]2C(C)=CC[C@H]3C(=C)C(=O)O[C@@H]3[C@@H]12
Reply text: No

Inquiry: I would be grateful if you could indicate the recorded call for CCOC(=O)/C=C(/C(=O)OCC)n1cc(C)c(=O)[nH]c1=O .
Reply text: No

Inquiry: Look up the recorded call for CO[C@@H]1C[C@H]2N3CC[C@@]2(c2cc4c(cc2C3)OCO4)[C@H]2O[C@@H]12 in this test.
Reply text: No

Inquiry: Hi, do you know how COc1cc2c3c4[n+](cc2c(OC)c1OC)CCC4CCC3 (centres undefined) came out in this test?
Reply text: No

Inquiry: Call for entry CC1=C(C(=O)Nc2ccccc2)C(c2ccc(N(C)C)cc2)C(C(=O)Nc2ccccc2)=C(C)N1 :
Reply text: No

Inquiry: Please state the recorded outcome for this compound: COC(=O)c1ccc(/C=C2\Oc3ccccc3C2=O)cc1
Reply text: No

Inquiry: Could you check what this test reported for C=CCN1CC2CN=NC2(C#N)C1 (centres undefined) ?
Reply text: No

Inquiry: # lookup: test call for Cc1cc(Cl)ccc1OCC(=O)Nc1nc(N)nc(N)n1
Reply text: No

Inquiry: // outcome(item) with item = c1ccc2nc(CCC3CCCCN3)ccc2c1 (centres undefined)
Reply text: No

Inquiry: What did this assay record as the result for NNC(=S)N1CCN(C(=S)NN)CC1 ?
Reply text: No

Inquiry: Give the logged outcome of this assay for the following compound: O=C(O)Cn1nnc2c(=O)[nH][nH]c(=O)c21
Reply text: No

Inquiry: Tell me the recorded outcome of this test for CC1(C)O[C@@H](CP(c2cccc3ccccc23)c2cccc3ccccc23)[C@H](CP(c2cccc3ccccc23)c2cccc3ccccc23)O1 .
Reply text: No

Inquiry: Hi, sorry to bother you, what did the test record for C=C(C)[C@@H](C(=O)OC)N1C(=O)c2ccccc2C1=O ?
Reply text: No

Inquiry: Tell me the assay call for CC(C)(/N=N/C(C)(C)C(=N)N)C(=N)N please.
Reply text: No

Inquiry: Recorded test call requested for CO[C@H]1O[C@@H]2OC3(C)CCC4[C@H](C)CCC([C@H]1C)[C@]42OO3 (some centres undefined)
Reply text: No

Inquiry: Short answer needed: outcome of this test for COc1cc(CSc2ccc(O)cc2)cc(OC)c1OC ?
Reply text: No

Inquiry: Assay outcome for CC(=O)c1ccc(Nc2nc3ccccc3c3occc23)cc1 : what was it?
Reply text: No

Inquiry: Write down the call the test reported for this compound. Item: O=C(O)c1cc2ccccc2c(/N=N/c2ccc(S(=O)(=O)Nc3ccccn3)cc2)c1O
Reply text: No

Inquiry: So what was the verdict on CN(C)c1ccc(/C=C/C=C(/C#N)c2ccccc2)cc1 in this test?
Reply text: No

Inquiry: For Cc1ccc2nc(/C=N/c3ccc(Cl)cc3)cc(C)c2c1 , which call appears in the assay record?
Reply text: No

Inquiry: What did the test return for CCCCCNC(=O)c1cc2cc(CCl)ccc2oc1=O ?
Reply text: No

Inquiry: State the result this test recorded for CSc1nc(N)c2c(-c3ccccc3)c3c(nc2n1)CCCC3 .
Reply text: No

Inquiry: Hello, I am checking results. What call was entered for CC(=O)NNC1=NN(C(C)=O)C2(S1)C(=O)Nc1ccccc12 (centres undefined) ?
Reply text: No

Inquiry: Outcome logged for CN1C(=O)C(CC=O)(C(C)(C)C)c2ccccc21 (centres undefined) in this assay:
Reply text: No

Inquiry: I would be grateful if you could indicate the recorded call for COc1ccc(C2=C(OC(=O)N(C)C)c3cccn3-c3cc(C(F)(F)F)ccc3S2)cc1 .
Reply text: No

Inquiry: Called result for CCOC(=O)C1=C(C)N(Cc2ccccc2)C2(O)C=CC(O)=C3C(=O)c4ccccc4C(=O)C312 (centres undefined)
Reply text: No

Inquiry: Returns: the outcome recorded for C=C1C(=O)OC2CC(C)C(/C=C/C(C)=O)=CCC12 (centres undefined) in this assay.
Reply text: No

Inquiry: For O=[N+]([O-])C(C(Cl)=C(Cl)Cl)=C(N1CCCCC1)N1CCCCC1 , which call appears in the assay record?
Reply text: No

Inquiry: Could you kindly confirm the outcome this assay logged for COC(=O)/C=C(/C)n1nc2ccccc2n1 ?
Reply text: No

Inquiry: Status in this test for CCOC(=O)C1CCC/C1=N\NC(=N)N.Cc1cc(O)c(C(C)C)cc1S(=O)(=O)O (centres undefined) ?
Reply text: No

Inquiry: Call for entry CC1(C)C2CC(=O)C1(C)C(OCc1ccccc1)C2 (centres undefined) :
Reply text: No

Inquiry: // param item: O=C(NCC(O)COc1ccccc1)c1ccccc1O (centres undefined) ; yields the recorded call
Reply text: No

Inquiry: # fetch the recorded call for O=P(O)(O)CN1CCNCCN(CP(=O)(O)O)CC1 here
Reply text: No

Inquiry: Test call for this compound, please: Nc1ccccc1N/C(=C\C(=O)C(Cl)(Cl)Cl)c1ccccc1
Reply text: No

Inquiry: Test call for this compound, please: CN1CCN(CCn2c3c4ccccc4ccc3c3oc(=O)c4ccccc4c32)CC1
Reply text: No

Inquiry: What did this assay record as the result for CC(NCc1c(O)ccc2c(-c3ccccc3)cc(=O)oc12)C(=O)O (centres undefined) ?
Reply text: No

Inquiry: Which result was noted for this compound in the test: CC(C)CC(NC(=O)C(CSc1ccc([N+](=O)[O-])cc1)Cc1ccccc1)C(=O)Nc1ccccc1 (centres undefined)
Reply text: No

Inquiry: Would you mind telling me which call this test gave COC(=O)c1c(O)ccc2c1c1c(n2Cc2ccc(OC)cc2)C(=O)c2ccccc2C1 ?
Reply text: No

Inquiry: I'd appreciate the recorded outcome for COc1cc(C#CC(=O)OC/C=C/c2ccc3c(c2)OCO3)cc(OC)c1OC from this test.
Reply text: No

Inquiry: How was Nc1nc(N)c(C2=CCN(Cc3ccccc3)CC2)c(=O)[nH]1 classified in this test?
Reply text: No

Inquiry: Which outcome was assigned to OC(COc1ccccc1)CN1CCCCC1 (centres undefined) in this test?
Reply text: No

Inquiry: Test call, this compound: CN(C)CCNc1ccc([N+](=O)[O-])c2nc3ccccc3c(N)c12
Reply text: Yes

Inquiry: Can you look up the reported call for CCCN1CC=C(c2cc(C(=O)OCC)[nH]c2-c2cc(C)no2)C1=O for me?
Reply text: No

Inquiry: For this compound, state the assay outcome: OCc1c2c(cc3c1CC1(C3)Cc3cc4c(c(CO)c3C1)CCC4)CCC2
Reply text: No
